# Test system: E. coli TESEC Mtb Alr
# procedure.details: growth (OD600 after 10 h); higher = more growth (less inhibition)
# details: arabinose 100000 nM; compound 0.1 mM; raw OD600 reference: median of DMSO wells 0.201, cell-free background 0.041
Counter-ions that a name gives are not always drawn.
assay.metric: growth
Just the number.

Incoming: Endpoint output: growth of CC#C[C@]1(O)CC[C@H]2[C@@H]3CCC4=CC(=O)CCC4=C3[C@@H](c3ccc(N(C)C)cc3)C[C@@]21C [Mifepristone] . Value?
Outgoing: 0.138

Incoming: Endpoint output: growth of NCc1ccccc1CC(=O)N[C@@H]1C(=O)N2C(C(=O)O)=C(CSc3nnnn3CC(=O)O)CS[C@H]12 [Ceforanide] . Value?
Outgoing: 0.238

Incoming: Endpoint output: growth of C=C1c2c(Cl)ccc(O)c2C(O)=C2C(=O)[C@]3(O)C(O)=C(C(N)=O)C(=O)[C@@H](N(C)C)[C@@H]3[C@@H](O)[C@H]12.O=C(O)c1cc(S(=O)(=O)O)ccc1O [Meclocycline sulfosalicylate] . Value?
Outgoing: 0.047

Incoming: Endpoint output: growth of CC(CCc1ccc(O)cc1)NCCc1ccc(O)c(O)c1 (stereo unspecified) [Dobutamine hydrochloride] . Value?
Outgoing: 0.198

Incoming: Endpoint output: growth of CCc1oc2ccccc2c1C(=O)c1cc(Br)c(O)c(Br)c1 [Benzbromarone] . Value?
Outgoing: 0.0421

Incoming: Endpoint output: growth of C#C[C@]1(O)CC[C@H]2[C@@H]3CCC4=C(CCC(=O)C4)[C@H]3CC[C@@]21C [Norethynodrel] . Value?
Outgoing: 0.157

Incoming: Endpoint output: growth of O=C(NCCNCC(O)COc1ccc(O)cc1)N1CCOCC1 (stereo unspecified) [Xamoterol hemifumarate] . Value?
Outgoing: 0.195

Incoming: Endpoint output: growth of CCCC(CCC)C(=O)O [Valproic acid] . Value?
Outgoing: 0.22

Incoming: Endpoint output: growth of COc1cc2nc(N(C)CCCNC(=O)C3CCCO3)nc(N)c2cc1OC (stereo unspecified) [Alfuzosin hydrochloride] . Value?
Outgoing: 0.192

Incoming: Endpoint output: growth of COC(=O)C1=C(C)NC(C)=C(C(=O)OC)C1c1ccccc1[N+](=O)[O-] [Nifedipine] . Value?
Outgoing: 0.136

Incoming: Endpoint output: growth of CC1c2cccc(O)c2C(O)=C2C(=O)C3(O)C(O)=C(C(N)=O)C(=O)C(N(C)C)C3C(O)C21 (stereo unspecified) [Doxycycline hydrochloride] . Value?
Outgoing: 0.0471

Incoming: Endpoint output: growth of COc1ccc(-c2ccc3cc(C(=O)O)ccc3c2)cc1C12CC3CC(CC(C3)C1)C2 [Adapalene] . Value?
Outgoing: 0.185

Incoming: Endpoint output: growth of COC(c1ccccc1)(c1ccccc1)[C@H](Oc1nc(C)cc(C)n1)C(=O)O [Ambrisentan] . Value?
Outgoing: 0.177

Incoming: Endpoint output: growth of CC(C)(C#N)c1cc(Cn2cncn2)cc(C(C)(C)C#N)c1 [Anastrozole] . Value?
Outgoing: 0.194

Incoming: Endpoint output: growth of CN1CCN(c2c(F)cc3c(=O)c(C(=O)O)cn4c3c2SCC4)CC1 [Rufloxacin] . Value?
Outgoing: 0.0421

Incoming: Endpoint output: growth of COC1=CC(=O)C[C@@H](C)[C@]12Oc1c(Cl)c(OC)cc(OC)c1C2=O [Griseofulvin] . Value?
Outgoing: 0.208
